# System: green peach aphid (Myzus persicae)
# method.notes: Myzus persicae test (spray treatment)
# Type: in vivo
# study.conditions: foliar, 144 h, application rate 500 g/ha, Chinese cabbage leaf discs sprayed, after 6 days, 100% = all aphids killed, read-out: efficacy in %
measurement.label: pest or weed control at 500 g/ha (%)
# number only, unit % dropped from output

Task: Lab note: need pest or weed control at 500 g/ha with green peach aphid (Myzus persicae) for entry O=C(NCC=CCl)c1ccc(-c2cccnc2)o1 , please look it up.
Result: 90

Task: O=C(NCc1cccs1)c1ccc(-c2cccnc2)o1 , same question.
Result: 100

Task: N#CCNC(=O)c1csc(-c2cccnc2)n1 , same question.
Result: 80

Task: CN(C)C(=O)c1ccc(-c2cccnc2)o1 , same question.
Result: 100

Task: O=C(NCC(F)(F)F)n1cnc(-c2cccnc2)c1 , same question.
Result: 100

Task: C=C(Cl)CNC(=O)c1ccc(-c2cccnc2)o1 , same question.
Result: 100

Task: O=C(NCC(F)(F)F)C1CN=C(c2cncnc2)S1 (centres unmarked) , same question.
Result: 100

Task: C#CCNC(=O)c1ccc(-c2cccnc2)o1 , same question.
Result: 100

Task: CN(C)C(=O)c1cnc(-c2cccnc2)o1 , same question.
Result: 90

Task: CCN(CC)C(=O)c1oc(-c2cccnc2)cc1C , same question.
Result: 90

Task: CCN(C)C(=O)c1ccc(-c2cccnc2)o1 , same question.
Result: 100

Task: O=C(NCc1ncccn1)C1CN=C(c2cncnc2)S1 (racemic) , same question.
Result: 80

Task: O=C(NCC1CC1)c1ccc(-c2cccnc2)o1 , same question.
Result: 100

Task: NC(=O)c1csc(-c2cccnc2)n1 , same question.
Result: 100

###

# System: green peach aphid (Myzus persicae)
# method.notes: Myzus persicae test (spray treatment)
# Assay type: in vivo
# study.conditions: in Brassica rapa, foliar, 144 h, read-out: efficacy in %
measurement.label: pest or weed control at 500 g/ha (%)
# number only, unit % dropped from output

Task: Look up pest or weed control at 500 g/ha: CC(F)(F)CNC(=O)c1cn(-c2cccnc2)nn1 [Compound 37]
Result: 100

Task: O=C(NCC(F)F)c1csc(-c2cccnc2)n1 [Compound 33] , same question.
Result: 100

Task: CC(F)(F)CNC(=O)c1cc(-c2cccnc2)ns1 [Compound 38] , same question.
Result: 100

Task: CNC(=O)c1ccc(-c2cccnc2)o1 [Compound 31] , same question.
Result: 100

Task: O=C(NCC(F)(F)F)c1ccn(-c2cccnc2)c1 [Compound 36] , same question.
Result: 90

###

# System: green peach aphid (Myzus persicae)
# method.notes: Myzus persicae test (spray treatment)
# Assay type: in vivo
# study.conditions: foliar, 144 h, application rate 500 g/ha, Chinese cabbage leaf discs sprayed, after 6 days, 100% = all aphids killed, read-out: efficacy in %
measurement.label: pest or weed control at 500 g/ha (%)
# number only, unit % dropped from output

Task: Look up pest or weed control at 500 g/ha: CC(NC(=O)c1ccc(-c2cccnc2)o1)C1CC1 (stereo not shown)
Result: 80

Task: CCCNC(=O)c1ccc(-c2cccnc2)o1 , same question.
Result: 100

Task: O=C(NCc1ncccn1)c1cc(-c2cccnc2)no1 , same question.
Result: 100

Task: CN(C)C(=O)C1CN=C(c2cccnc2)S1 (racemic) , same question.
Result: 100

Task: CCN(CC)C(=O)c1ccc(-c2cccnc2)o1 , same question.
Result: 100

Task: O=C(NCC(F)(F)F)c1coc(-c2cccnc2)c1 , same question.
Result: 90

Task: O=C(NCc1ncccn1)C1CN=C(c2cccnc2)S1 (stereo not shown) , same question.
Result: 100

Task: CSC[C@H](C)NC(=O)c1nnc(-c2cccnc2)o1 , same question.
Result: 80

Task: CN(C)C(=O)c1cc(-c2cccnc2)no1 , same question.
Result: 100

Task: CN(CC#N)C(=O)c1ccc(-c2cccnc2)o1 , same question.
Result: 90

###

# method.notes: physchem
# Format: physicochemical
# study.conditions: reverse-phase HPLC column (C 18), pH 3.4, HPLC-MS value printed in the preparation example text; acidic range pH 3.4; read-out: logP (HCOOH)
Tag: satisfied if measured chromatographic logP is not below 1, not satisfied if it is.

Task: # check: chromatographic logP of CN(C)C(=O)c1cnc(-c2cccnc2)o1 is greater than or equal to 1
Result: satisfied

Task: O=C(O)c1cc(-c2ccc(Cl)nc2)ns1 , same question.
Result: satisfied

Task: Cc1cc(-c2cccnc2)sc1C(=O)NCC(F)(F)F , same question.
Result: satisfied

Task: O=C(O)c1cn(-c2cccnc2)nn1 , same question.
Result: not satisfied

Task: O=C(O)C1CN=C(c2cncnc2)S1 (racemic) , same question.
Result: not satisfied

Task: CN(C)C(=O)c1cc(-c2cccnc2)no1 , same question.
Result: not satisfied

Task: O=C(O)c1cnc(-c2cccnc2)o1 , same question.
Result: not satisfied

Task: O=C(NCC(F)(F)F)c1nnc(-c2cccnc2)o1 , same question.
Result: satisfied

Task: Cc1nc(-c2cccnc2)oc1C(=O)O , same question.
Result: not satisfied

Task: CNC(=O)c1ccc(-c2cccnc2)o1 , same question.
Result: not satisfied

Task: Cc1nc(-c2cccnc2)oc1C(=O)NCC(F)(F)F , same question.
Result: satisfied

Task: CCOC(=O)c1cn(-c2cccnc2)nn1 , same question.
Result: satisfied

Task: O=C(O)c1csc(-c2cccnc2)n1 , same question.
Result: not satisfied

Task: CC(F)(F)CNC(=O)c1cc(-c2cccnc2)ns1 , same question.
Result: satisfied

Task: CCOC(=O)c1ncn(-c2cccnc2)c1C , same question.
Result: satisfied

Task: O=C(NCC(F)(F)F)c1ccn(-c2cccnc2)c1 , same question.
Result: satisfied

Task: CCOC(=O)c1cc(-c2ccc(Cl)nc2)ns1 , same question.
Result: satisfied

Task: Cc1cc(-c2cccnc2)sc1C(=O)O , same question.
Result: satisfied

Task: COC(=O)c1ccn(-c2cccnc2)c1 , same question.
Result: satisfied

Task: O=C(NCC(F)(F)F)n1cnc(-c2cccnc2)c1 , same question.
Result: not satisfied

Task: O=C(NCc1ncccn1)C1CN=C(c2cncnc2)S1 (racemic) , same question.
Result: not satisfied

Task: Cc1nc(C(=O)NCC(F)(F)F)sc1-c1cccnc1 , same question.
Result: satisfied

Task: CSCCNC(=O)c1nnc(-c2cccnc2)o1 , same question.
Result: satisfied

Task: CCOC(=O)c1nc(C)c(-c2cccnc2)s1 , same question.
Result: not satisfied

Task: O=C(NCC(F)(F)F)c1coc(-c2cccnc2)c1 , same question.
Result: satisfied

###

# method.notes: physchem
# Format: physicochemical
# study.conditions: pH 3.4, HPLC-MS value printed in the preparation example text; acidic range pH 3.4; read-out: logP (HCOOH)
For each record, write down the corresponding chromatographic logP.
# answer = number (no unit)

Task: Look up chromatographic logP: O=C(NCC(F)F)c1csc(-c2cccnc2)n1 [Compound 33]
Result: 1.18

Task: O=C(O)C1CN=C(c2cccnc2)S1 (racemic) , same question.
Result: 0.75

###

For each record, write down the corresponding chromatographic logP.
# method.notes: physchem
# Type: physicochemical
# study.conditions: reverse-phase HPLC column (C 18), pH 3.4, HPLC-MS value printed in the preparation example text; acidic range pH 3.4; read-out: logP (HCOOH)
# answer = number (no unit)

Task: Look up chromatographic logP: Cc1c(C(=O)NCC(F)(F)F)ncn1-c1cccnc1
Result: 1.28

Task: CCOC(=O)c1nnc(-c2cccnc2)o1 , same question.
Result: 1.21

Task: O=C(O)c1coc(-c2cccnc2)c1 , same question.
Result: 0.07

Task: O=C(NCC(F)(F)F)c1cc(-c2cccnc2)on1 , same question.
Result: 1.51

Task: CC(F)(F)CNC(=O)c1cn(-c2cccnc2)nn1 , same question.
Result: 1.25

Task: CC(F)(F)CNC(=O)c1cc(-c2ccc(Cl)nc2)ns1 , same question.
Result: 2.45
